Hey, just so you know, these numbers are from patent US8501446B2.

tested-target: Aurora-B (Homo sapiens)
Sequence (Q96GD4 whole entry): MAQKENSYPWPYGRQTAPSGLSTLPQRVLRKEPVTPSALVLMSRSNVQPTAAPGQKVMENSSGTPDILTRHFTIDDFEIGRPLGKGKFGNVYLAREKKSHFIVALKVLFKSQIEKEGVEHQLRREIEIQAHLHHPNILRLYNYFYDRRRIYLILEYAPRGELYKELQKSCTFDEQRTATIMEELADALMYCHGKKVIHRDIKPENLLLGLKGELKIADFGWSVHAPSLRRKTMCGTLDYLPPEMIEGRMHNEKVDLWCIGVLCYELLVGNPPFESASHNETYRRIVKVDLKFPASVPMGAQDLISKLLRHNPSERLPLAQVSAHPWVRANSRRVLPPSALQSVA
recorded-endpoint: Ki

C[C@H](Nc1nc(-c2c[nH]c3ncc(Cl)cc23)ncc1F)c1ccc(F)cc1 [Compound 285]    < 0.5 µM
C[C@H](Nc1ccnc(-c2c[nH]c3ncc(Cl)cc23)n1)C(=O)NCC(F)(F)F [Compound 413]    < 0.5 µM

input: Which Ki is reported with Aurora-B (Homo sapiens) for this entry: CCc1cnc(Cl)nc1-c1c[nH]c2ncc(Cl)cc12 [Compound 428] ?
output: 0.5 to 5 µM

input: Which Ki is reported with Aurora-B (Homo sapiens) for this entry: CCCC[C@H](C)NC(=O)[C@H](C)Nc1nc(-c2c[nH]c3ncc(Cl)cc23)ncc1F [Compound 463] ?
output: 0.5 to 5 µM

input: Which Ki is reported with Aurora-B (Homo sapiens) for this entry: Fc1cnc(-c2c[nH]c3ncc(Cl)cc23)nc1NC1CCNCC1 [Compound 345] ?
output: 0.5 to 5 µM

input: Which Ki is reported with Aurora-B (Homo sapiens) for this entry: C[C@H](Nc1nc(-c2c[nH]c3ncc(Cl)cc23)ncc1F)C(=O)NCCSCc1c(Cl)cccc1Cl [Compound 462] ?
output: 0.5 to 5 µM

input: Which Ki is reported with Aurora-B (Homo sapiens) for this entry: O=C(CNc1nc(-c2c[nH]c3ncc(Cl)cc23)ncc1C(F)(F)F)NCC(F)(F)F [Compound 421] ?
output: 0.5 to 5 µM

input: Which Ki is reported with Aurora-B (Homo sapiens) for this entry: C[C@H](Nc1nc(-c2c[nH]c3ncc(Cl)cc23)ncc1F)c1cccc(OC(=O)NO)c1 [Compound 375] ?
output: < 0.5 µM
